biological target: recombinant human GALK1 (Homo sapiens, UniProt P51570); assay: hGALK1 biochemical activity assay (Kinase-Glo Plus, ATP depletion); conditions: Tables 2-15; 35 μM ATP, 100 μM galactose, 1 h; bracketed figure after some values (e.g. −1.2) is undefined and not reported; read-out: hGALK IC50
Sequence (P51570 whole entry): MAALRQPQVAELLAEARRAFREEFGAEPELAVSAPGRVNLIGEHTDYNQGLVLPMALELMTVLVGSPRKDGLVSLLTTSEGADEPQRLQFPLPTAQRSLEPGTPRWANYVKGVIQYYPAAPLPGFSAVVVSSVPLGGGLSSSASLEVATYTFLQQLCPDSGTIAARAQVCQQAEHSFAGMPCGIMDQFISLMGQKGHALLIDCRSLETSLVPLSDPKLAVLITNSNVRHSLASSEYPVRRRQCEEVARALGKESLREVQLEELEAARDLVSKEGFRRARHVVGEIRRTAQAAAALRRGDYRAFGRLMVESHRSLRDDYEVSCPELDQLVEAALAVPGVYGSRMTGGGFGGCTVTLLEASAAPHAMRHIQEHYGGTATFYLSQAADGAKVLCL
measurementLabel: pIC50
Give bare numbers, as −log10 of the molar value.

As a guide, the following entries are already answered.
compound	pIC50
CC1=C(C(=O)Nc2cc(C(=O)O)ccn2)C(c2ccccc2Cl)N=C(Nc2nc3cccc(C)c3o2)N1 (stereo not shown) [Compound 15]	6.01
COc1ccc([C@H]2N=C(Nc3nc4cccc(N)c4o3)NC(C)=C2C(=O)Nc2cc(C(=O)O)ccn2)c(Cl)c1 [Compound 86]	5.26
CC1=C(C(=O)Nc2ccc(C(=O)O)cc2)C(c2ccccc2Cl)N=C(Nc2nc3ccccc3o2)N1 (stereo not shown) [Compound 143]	5.82

Shifting focus to the compound that follows.
pIC50 measured on COC(=O)c1cnc(NC(=O)C2=C(C)NC(Nc3nc4ccccc4o3)=NC2c2ccccc2Cl)s1 (stereo not shown) [Compound 185] = 5.36

----------
Please provide measured Perm. (1 × 10^−6 cm/sec) for the entries that follow.
test: PAMPA permeability

molecule	measurement
CC1=C(C(=O)NCc2c(C)nn(C)c2C)C(c2ccc(C)cc2Cl)N=C(Nc2nc3ccc(F)cc3o2)N1 (stereo not shown)	16.91 1 × 10^−6 cm/sec
CC1=C(C(=O)Nc2ccc(C#N)cn2)C(c2ccccc2Cl)N=C(Nc2nc3ccc(F)cc3o2)N1 (stereo not shown)	<7.8 1 × 10^−6 cm/sec
CC1=C(C(=O)Nc2cc(C(=O)O)ccn2)C(c2ccccc2Cl)N=C(Nc2nc3c(C)cccc3o2)N1 (stereo not shown)	<1.3 1 × 10^−6 cm/sec
COc1ccc([C@H]2N=C(Nc3nc4cccc(N)c4o3)NC(C)=C2C(=O)Nc2cc(C(=O)O)ccn2)c(Cl)c1	<1 1 × 10^−6 cm/sec
CC1=C(C(=O)Nc2cc(C(=O)O)ccn2)C(c2ccccc2Cl)N=C(Nc2nc3c(N)cccc3o2)N1 (stereo not shown)	<1 1 × 10^−6 cm/sec
CC1=C(C(=O)Nc2cc(-c3nn[nH]n3)ccn2)C(c2ccc(C)cc2Cl)N=C(Nc2nc3ccc(F)cc3o2)N1 (stereo not shown)	<1 1 × 10^−6 cm/sec
CC1=C(C(=O)Nc2nnc(-c3cccnc3)s2)C(c2ccccc2Cl)N=C(Nc2nc3cc(F)ccc3o2)N1 (stereo not shown)	<1.5 1 × 10^−6 cm/sec
CC1=C(C(=O)Nc2nnc(-c3cccnc3)s2)C(c2ccccc2Cl)N=C(Nc2nc3ccc(F)cc3o2)N1 (stereo not shown)	<9.9 1 × 10^−6 cm/sec
CC1=C(C(=O)Nc2cc(C(=O)O)ccn2)C(c2ccc(-c3ccc(C)nc3)cc2Cl)N=C(Nc2nc3ccc(F)cc3o2)N1 (stereo not shown)	<1 1 × 10^−6 cm/sec
CC1=C(C(=O)NCc2cnn(C)c2)[C@@H](c2ccc(C)cc2Cl)N=C(Nc2nc3cccc(N)c3o2)N1	326.9 1 × 10^−6 cm/sec

Dear colleague, could you send me Perm. (1 × 10^−6 cm/sec) for each of the items below? Thanks.
1. CC1=C(C(=O)Nc2cc(C(=O)O)ccn2)C(c2ccc(C(=O)O)cc2Cl)N=C(Nc2nc3ccc(F)cc3o2)N1 (stereo not shown)
2. CC1=C(C(=O)NCc2cnn(C)c2)C(c2ccccc2Cl)N=C(Nc2nc3ccc(F)cc3o2)N1 (stereo not shown)
3. CC1=C(C(=O)Nc2nnc(-c3cccnc3)s2)C(c2ccccc2Cl)N=C(Nc2nc3cc(Cl)ccc3o2)N1 (stereo not shown)
4. CC1=C(C(=O)Nc2cc(C(=O)O)ccn2)[C@H](c2ccc(C)cc2Cl)N=C(Nc2nc3cccc(N)c3o2)N1
5. CC1=C(C(=O)Nc2cc(C(=O)O)ccn2)C(c2ccc(Cl)cc2Cl)N=C(Nc2nc3ccc(F)cc3o2)N1 (stereo not shown)

["<1 1 × 10^−6 cm/sec", "942.87 1 × 10^−6 cm/sec", "<3.4 1 × 10^−6 cm/sec", "<1 1 × 10^−6 cm/sec", "<1 1 × 10^−6 cm/sec"]

Provide Perm. (1 × 10^−6 cm/sec) values for the following items, in order.
1. CC1=C(C(=O)Nc2cc(C(=O)O)ccn2)[C@@H](c2ccc(C)cc2Cl)N=C(Nc2nc3cccc(N)c3o2)N1
2. CC1=C(C(=O)Nc2cc(C(=O)O)ccn2)C(c2ccccc2Cl)N=C(Nc2nc3cccc(Cl)c3o2)N1 (stereo not shown)
3. CC1=C(C(=O)Nc2cc(CO)ccn2)C(c2ccccc2Cl)N=C(Nc2nc3ccc(F)cc3o2)N1 (stereo not shown)
4. CC1=C(C(=O)Nc2cc(C(=O)O)ccn2)C(c2cccc(C(F)(F)F)c2)N=C(Nc2nc3ccc(F)cc3o2)N1 (stereo not shown)
5. CC1=C(C(=O)Nc2cc(C(=O)O)ccn2)C(c2ccc(N3CCCCC3)cc2Cl)N=C(Nc2nc3ccc(F)cc3o2)N1 (stereo not shown)

1. <1 1 × 10^−6 cm/sec
2. <1 1 × 10^−6 cm/sec
3. 59.9 1 × 10^−6 cm/sec
4. <1 1 × 10^−6 cm/sec
5. 1.35 1 × 10^−6 cm/sec

// for each molecule in input: emit Perm. (1 × 10^−6 cm/sec)
1. COC(=O)c1ccnc(NC(=O)C2=C(C)NC(Nc3nc4ccc(F)cc4o3)=N[C@H]2c2ccccc2Cl)c1
2. CC1=C(C(=O)Nc2cc(C(=O)O)ccn2)C(c2ccc(C)cc2Cl)N=C(Nc2nc3cnccc3o2)N1 (stereo not shown)

1. <21.9 1 × 10^−6 cm/sec
2. <1 1 × 10^−6 cm/sec

# batch size: 4; output Perm. (1 × 10^−6 cm/sec) per entry
1. COC(=O)c1ccnc(NC(=O)C2=C(C)NC(Nc3nc4cccc(N)c4o3)=NC2c2ccc(C)cc2Cl)c1 (stereo not shown)
2. CC1=C(C(=O)Nc2cc(C(=O)O)ccn2)[C@@H](c2ccccc2Cl)N=C(Nc2nc3cccc(N)c3o2)N1
3. COc1cccc(C2N=C(Nc3nc4ccc(F)cc4o3)NC(C)=C2C(=O)Nc2cc(C(=O)O)ccn2)c1Cl (stereo not shown)
4. CC1=C(C(=O)Nc2cc(C(=O)O)ccn2)C(c2ccc(N3CCCC3)cc2Cl)N=C(Nc2nc3ccc(F)cc3o2)N1 (stereo not shown)

177.1 1 × 10^−6 cm/sec
<1.3 1 × 10^−6 cm/sec
<1 1 × 10^−6 cm/sec
<1 1 × 10^−6 cm/sec

Could I get Perm. (1 × 10^−6 cm/sec) for every one of these entries?
1. CC1=C(C(=O)NCc2cnn(Cc3ccccc3)c2)C(c2ccc(C)cc2Cl)N=C(Nc2nc3cccc(N)c3o2)N1 (stereo not shown)
2. CC1=C(C(=O)Nc2ccccn2)C(c2ccccc2Cl)N=C(Nc2nc3cccc(N)c3o2)N1 (stereo not shown)

103.8 1 × 10^−6 cm/sec
271.13 1 × 10^−6 cm/sec
